Hey, just so you know, these numbers are from paper PMC2662877.

Measurement target: GST (Schistosoma japonicum, UniProt P08515)
Construct: purchased Sigma-Aldrich
Sequence (P08515 whole entry): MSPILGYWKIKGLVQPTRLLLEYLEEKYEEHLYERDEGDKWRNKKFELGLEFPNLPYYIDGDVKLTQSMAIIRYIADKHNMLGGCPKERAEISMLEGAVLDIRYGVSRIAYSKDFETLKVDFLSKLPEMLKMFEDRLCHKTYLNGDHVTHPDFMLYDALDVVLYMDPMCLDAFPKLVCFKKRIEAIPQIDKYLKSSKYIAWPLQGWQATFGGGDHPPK
Measurement protocol: biochemical
Format: biochemical
Condition context: Ki, F1 peptide 0.8 μM, noncompetitive
No end group written: not given here.
Readout label: Ki (µM)
Answers are plain numbers, in µM.

// Ki lookup, sequence = GYWKIKGLV [F1 peptide] , result: 4

###

Measurement target: GST (Schistosoma japonicum)
Construct: purchased Sigma-Aldrich
Measurement protocol: biochemical
Assay type: biochemical
Condition context: Ki, F1 peptide 1.6 μM, noncompetitive
No end group written: not given here.
Readout label: pKi
Give bare numbers, as −log10 of the molar value.

According to the records, this sequence GYWKIKGLV [F1 peptide] displays pKi of 5.34

###

Field: pIC50. Provide a value for each of the sequences that follow.
Measurement target: GST (Schistosoma japonicum)
Construct: purchased Sigma-Aldrich
Measurement protocol: biochemical
Assay type: biochemical
No end group written: not given here.
Numbers only, as −log10 of the molar value.

| Primary sequence | pIC50 |
| --- | --- |
| KWRNKKFELGLEFPNL [F2 peptide] | 6.22 |

Entry GYWKIKGLV [F1 peptide] — recorded pIC50 = 6.10

###

Measurement target: GST (Schistosoma japonicum)
Construct: purchased Sigma-Aldrich
Measurement protocol: biochemical
Assay type: biochemical
Condition context: Ki, F2 peptide 0.8 μM, competitive
No end group written: not given here.
Readout label: pKi
Answers are plain numbers, as −log10 of the molar value.

// pKi value for KWRNKKFELGLEFPNL [F2 peptide] : 5.82
